B1: OR4K15 (parent)
chain: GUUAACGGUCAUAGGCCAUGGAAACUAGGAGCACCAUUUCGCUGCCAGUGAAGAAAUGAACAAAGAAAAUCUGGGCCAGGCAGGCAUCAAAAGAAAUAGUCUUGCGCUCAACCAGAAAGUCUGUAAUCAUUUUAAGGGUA

- Variants of: B1
- Assay Method Text: self-cleavage, relative activity (ratio to wild type); higher = more cleavage; in vitro, sequencing; the parent is a self-cleaving ribozyme
Parameter: self-cleavage

- G41A U133C: 1.98
- G29U U102A: 1
- A68C A78G: 0.24
- A82U U131C: 0.24
- A47U A114U: 0.06
- G7A A59G: 1.46
- G80A A96G: 0.18
- A22U A94G: 1.84
- A55U A125G: 0.35
- U70C A78U: 0.52
- A13G A47G: 0.13
- A82G A116G: 0.26
- A23G U127C: 0.79
- G104C: 0.02
- A60G A69U: 1.67
- A22G U102C: 1.56
- U9C A47U: 1.1
- U19C A51G: 0.51
- A95G U108C: 0.01
- A11C: 1.41
- A94C A126G: 0.79
- U87C U133G: 1.67
